# test.summary: self-splicing fitness, log relative to wild type (ln ratio); higher = more splicing; Tetrahymena group I intron in knt gene, E. coli kanamycin selection, DiMSum; sequences stand for … in CUCUCU…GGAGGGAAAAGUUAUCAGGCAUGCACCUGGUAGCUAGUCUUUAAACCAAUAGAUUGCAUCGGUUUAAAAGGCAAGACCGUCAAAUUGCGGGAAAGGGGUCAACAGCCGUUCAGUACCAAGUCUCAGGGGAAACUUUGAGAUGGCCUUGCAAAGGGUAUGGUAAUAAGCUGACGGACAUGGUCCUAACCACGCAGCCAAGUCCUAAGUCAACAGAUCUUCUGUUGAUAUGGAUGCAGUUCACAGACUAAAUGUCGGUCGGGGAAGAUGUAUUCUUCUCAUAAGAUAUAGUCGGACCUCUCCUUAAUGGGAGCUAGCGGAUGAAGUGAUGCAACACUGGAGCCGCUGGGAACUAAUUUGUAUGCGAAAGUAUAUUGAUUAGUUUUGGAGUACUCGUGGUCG;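 further: selection with 25 µg/mL kanamycin versus none on LB agar overnight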
# run.conditions: 37 °C
Assign classes using reported self-splicing fitness (ln) values and the ranges lower bin = under -2, middle bin = from -2 up to -0.9, upper bin = -0.9 and over, please.

{"construct.sequence": "CGUGAGCAAUAUUACGUCUG", "assigned.class": "upper bin"}
{"construct.sequence": "AUCAAGCAAUAUUACGGCUG", "assigned.class": "upper bin"}
{"construct.sequence": "UUUCAGCAAUAUUACGAGGU", "assigned.class": "lower bin"}
{"construct.sequence": "UGUUAGCAAUAUUACGGUCA", "assigned.class": "upper bin"}
{"construct.sequence": "AUCCAGCAAUAUUACGCAUA", "assigned.class": "upper bin"}
{"construct.sequence": "UACGAGCAAUAUUACGGCUA", "assigned.class": "upper bin"}
{"construct.sequence": "UAACAGCAAUAUUACGUACC", "assigned.class": "middle bin"}
{"construct.sequence": "GGUCAGCAAUAUUACGAGGU", "assigned.class": "middle bin"}
{"construct.sequence": "CAGGAGCAAUAUUACGUGUC", "assigned.class": "lower bin"}
{"construct.sequence": "ACGGAGCAAUAUUACGCCUG", "assigned.class": "middle bin"}
{"construct.sequence": "CCUCAGCAAUAUUACGUUGC", "assigned.class": "lower bin"}
{"construct.sequence": "UAGCAGCAAUAUUACGAAUU", "assigned.class": "lower bin"}
{"construct.sequence": "UAAAAGCAAUAUUACGAGAC", "assigned.class": "lower bin"}
{"construct.sequence": "CUGUAGCAAUAUUACGGCCG", "assigned.class": "upper bin"}
{"construct.sequence": "GAUAAGCAAUAUUACGCACC", "assigned.class": "upper bin"}
{"construct.sequence": "GGCAAGCAAUAUUACGGUGG", "assigned.class": "middle bin"}
{"construct.sequence": "GCGAAGCAAUAUUACGCCUU", "assigned.class": "middle bin"}
{"construct.sequence": "CCAAAGCAAUAUUACGGUUU", "assigned.class": "lower bin"}
{"construct.sequence": "GCCAAGCAAUAUUACGGUCG", "assigned.class": "lower bin"}
{"construct.sequence": "CGUUAGCAAUAUUACGGUCU", "assigned.class": "middle bin"}
{"construct.sequence": "CCUGAGCAAUAUUACGUUGG", "assigned.class": "lower bin"}
{"construct.sequence": "UGGUAGCAAUAUUACGACGA", "assigned.class": "upper bin"}
{"construct.sequence": "AUAUAGCAAUAUUACGCGUC", "assigned.class": "lower bin"}
{"construct.sequence": "UCAGAGCAAUAUUACGGCUC", "assigned.class": "lower bin"}
{"construct.sequence": "CGCUAGCAAUAUUACGACAU", "assigned.class": "lower bin"}
{"construct.sequence": "AUAGAGCAAUAUUACGGGGG", "assigned.class": "lower bin"}
{"construct.sequence": "UCGAAGCAAUAUUACGCAGA", "assigned.class": "lower bin"}
{"construct.sequence": "UUGCAGCAAUAUUACGCGCU", "assigned.class": "upper bin"}
{"construct.sequence": "GACAAGCAAUAUUACGAUUC", "assigned.class": "upper bin"}
{"construct.sequence": "CGAUAGCAAUAUUACGGCUA", "assigned.class": "middle bin"}
{"construct.sequence": "CAGAAGCAAUAUUACGAGAA", "assigned.class": "lower bin"}
{"construct.sequence": "CUAUAGCAAUAUUACGCCUG", "assigned.class": "upper bin"}
{"construct.sequence": "UAUAAGCAAUAUUACGGGAA", "assigned.class": "middle bin"}
{"construct.sequence": "GCAAAGCAAUAUUACGUGAU", "assigned.class": "middle bin"}
{"construct.sequence": "GGUAAGCAAUAUUACGUUAC", "assigned.class": "middle bin"}
{"construct.sequence": "UUGUAGCAAUAUUACGUCGU", "assigned.class": "lower bin"}
{"construct.sequence": "AUCGAGCAAUAUUACGCUGA", "assigned.class": "middle bin"}
{"construct.sequence": "GCACAGCAAUAUUACGUGGU", "assigned.class": "middle bin"}
{"construct.sequence": "UACGAGCAAUAUUACGGACA", "assigned.class": "middle bin"}
{"construct.sequence": "AUGGAGCAAUAUUACGGAGG", "assigned.class": "lower bin"}
{"construct.sequence": "UGACAGCAAUAUUACGACAU", "assigned.class": "upper bin"}
{"construct.sequence": "AGUAAGCAAUAUUACGAUUG", "assigned.class": "lower bin"}
{"construct.sequence": "GGCUAGCAAUAUUACGACUG", "assigned.class": "upper bin"}
{"construct.sequence": "AUCUAGCAAUAUUACGGGCC", "assigned.class": "lower bin"}
{"construct.sequence": "AUCAAGCAAUAUUACGACGU", "assigned.class": "upper bin"}
{"construct.sequence": "AUCGAGCAAUAUUACGUUAC", "assigned.class": "middle bin"}
{"construct.sequence": "GCUGAGCAAUAUUACGCCGA", "assigned.class": "middle bin"}
{"construct.sequence": "AUUUAGCAAUAUUACGCAGC", "assigned.class": "middle bin"}
{"construct.sequence": "UUUUAGCAAUAUUACGGAGC", "assigned.class": "lower bin"}
{"construct.sequence": "AGAGAGCAAUAUUACGCAAG", "assigned.class": "lower bin"}
{"construct.sequence": "AAACAGCAAUAUUACGCUUA", "assigned.class": "upper bin"}
{"construct.sequence": "AUUCAGCAAUAUUACGUUGA", "assigned.class": "middle bin"}
{"construct.sequence": "GUUAAGCAAUAUUACGUCCG", "assigned.class": "upper bin"}
{"construct.sequence": "ACGCAGCAAUAUUACGUUAA", "assigned.class": "lower bin"}
{"construct.sequence": "UGCCAGCAAUAUUACGUACU", "assigned.class": "middle bin"}
{"construct.sequence": "AUACAGCAAUAUUACGUCCC", "assigned.class": "upper bin"}
{"construct.sequence": "CCACAGCAAUAUUACGCAUG", "assigned.class": "upper bin"}
{"construct.sequence": "AAAGAGCAAUAUUACGUCAG", "assigned.class": "lower bin"}
{"construct.sequence": "AACAAGCAAUAUUACGCGAG", "assigned.class": "upper bin"}
{"construct.sequence": "UUAAAGCAAUAUUACGGAAA", "assigned.class": "middle bin"}
{"construct.sequence": "UUCAAGCAAUAUUACGAUUA", "assigned.class": "upper bin"}
{"construct.sequence": "CAUUAGCAAUAUUACGACUG", "assigned.class": "upper bin"}
{"construct.sequence": "CGUAAGCAAUAUUACGGUGA", "assigned.class": "lower bin"}
{"construct.sequence": "CUGAAGCAAUAUUACGGCAG", "assigned.class": "upper bin"}
